Taken from ChEMBL document CHEMBL1142165.

# Tested on: HeLa
# EXPERIMENTAL_DETAILS: Antiproliferative effect against HeLa cells after 48 hrs
# Assay type: functional, cell-based
# REPORTED_CONDITIONS: Homo sapiens

MOLECULE_SMILES	RESULT_COMPARATOR	IC50 / µg/mL
CC[C@H]1OC(=O)[C@H](C)[C@@H](O[C@H]2C[C@@](C)(OC)[C@@H](O)[C@H](C)O2)[C@H](C)[C@@H](O[C@@H]2O[C@H](C)C[C@H](N(C)C)[C@H]2O)[C@](C)(O)C[C@@H](C)/C(=N\OCOCCOC)[C@H](C)[C@@H](O)[C@]1(C)O	=	160
O=C(O)c1cn(C2CC2)c2cc(N3CCNCC3)c(F)cc2c1=O	=	290
CO[C@H]1/C=C/O[C@@]2(C)Oc3c(C)c(O)c4c(O)c(c(/C=N/N5CCN(C)CC5)c(O)c4c3C2=O)NC(=O)/C(C)=C\C=C\[C@H](C)[C@H](O)[C@@H](C)[C@@H](O)[C@@H](C)[C@H](OC(C)=O)[C@@H]1C	=	270
Cc1nnc(SCC2=C(C(=O)O)N3C(=O)[C@@H](NC(=O)Cn4cnnn4)[C@H]3SC2)s1	>	400
CCC[C@@H]1C[C@@H](C(=O)N[C@@H]([C@H]2O[C@H](SC)[C@H](O)[C@@H](O)[C@H]2O)[C@H](C)Cl)N(C)C1	>	400
